- testedOn: human orexin-2 receptor (Homo sapiens (Human))
- Sequence (O43614 whole entry): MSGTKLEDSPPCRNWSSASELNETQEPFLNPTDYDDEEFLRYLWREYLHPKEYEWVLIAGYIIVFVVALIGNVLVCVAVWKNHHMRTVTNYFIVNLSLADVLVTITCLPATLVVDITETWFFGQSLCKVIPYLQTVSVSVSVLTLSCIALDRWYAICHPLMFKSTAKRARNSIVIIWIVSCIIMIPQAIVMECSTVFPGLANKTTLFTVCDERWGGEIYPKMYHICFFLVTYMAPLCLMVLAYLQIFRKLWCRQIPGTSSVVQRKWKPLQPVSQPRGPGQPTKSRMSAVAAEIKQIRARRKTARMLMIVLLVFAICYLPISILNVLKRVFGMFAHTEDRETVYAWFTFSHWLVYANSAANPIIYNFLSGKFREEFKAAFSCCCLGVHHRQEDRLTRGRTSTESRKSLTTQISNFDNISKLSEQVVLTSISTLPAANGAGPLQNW
- testMethodNotes: In vitro assay: intracellular calcium measurements (FLIPR), antagonistic activity
- experimentalConditions: CHO cells expressing human orexin-2 receptor, orexin-A agonist, geometric mean, read-out: IC50 Ox2
- Experimental: In Vitro Assay: Intracellular Calcium Measurements: […] Within the Fluorescent Imaging Plate Reader (FLIPR Tetra, Molecular Devices), antagonists are added to the plate in a volume of 10 μl/well, incubated for 120 min and finally 10 μl/well of agonist is added. […] The calculated IC50 values may fluctuate depending on the daily cellular assay performance. […]
measurementType: IC50 (nM)
Give a bare numeral; the unit nM is implied.

Problem: Requested field: IC50. Item: Cc1nc(C(=O)N2CCCC2c2nc3cc(Br)cc(C)c3[nH]2)c(-c2ccccc2)s1 (stereo not drawn)
Result: 48

Problem: Need IC50 of CSc1ccc2nc([C@@H]3CCCN3C(=O)c3cnc(C)nc3-c3ccc(C)c(C)c3)[nH]c2c1 , thanks.
Result: 10

Problem: Value lookup for IC50; key = Cc1cc2nc([C@]3(C)CCCN3C(=O)c3cc(Cl)ccc3-n3nccn3)[nH]c2cc1C
Result: 23

Problem: Tell me the measured IC50 of Cc1cc2[nH]c([C@@H]3[C@@H](C)CCN3C(=O)c3c(F)cccc3-c3ncccn3)nc2cc1Cl , please.
Result: 359

Problem: Requested read-out: IC50. Entry: CCn1c([C@]2(C)CCCN2C(=O)c2cc(C)ccc2-c2cccc(OC)c2)nc2cc(C)c(C)cc21
Result: 35

Problem: Look up IC50: Cc1ccc(-c2cccc(C(F)(F)F)c2)c(C(=O)N2CCC[C@@]2(C)c2nc3cc(C(F)(F)F)ccc3[nH]2)c1
Result: 102

Problem: Request the reported IC50 associated with Cc1cc2[nH]c([C@@H]3[C@@H](C)CCN3C(=O)c3cc(C#N)ccc3-c3ccccc3)nc2cc1Cl
Result: 419

Problem: Given the entry COc1ccccc1-c1sc(C)nc1C(=O)N1CC[C@H](C)[C@H]1c1nc2cc(C(F)(F)F)ccc2[nH]1 , report its measured IC50.
Result: 9650

Problem: Could you tell me which IC50 is on file for CO[C@H]1CN(C(=O)c2nc(C)sc2-c2cccc(Cl)c2)[C@](C)(c2nc3c(C)c(Cl)ccc3[nH]2)C1 ?
Result: 4

Problem: Can you share its IC50? I mean this compound: C=C1C[C@@H](c2nc3cccc(C)c3[nH]2)N(C(=O)c2nc(C)sc2-c2cccc(C(F)(F)F)c2)C1
Result: 0.7

Problem: // returns reported IC50 for input Cc1cc(C(=O)N2CCC[C@@]2(C)c2nc3cc(C)c(C)cc3n2C)c(-n2nccn2)cc1C
Result: 19

Problem: So what does the record say about IC50 for C=C1C[C@@H](c2nc3ccc(Cl)c(C)c3[nH]2)N(C(=O)c2nc(C)sc2-c2ccc(Br)cc2)C1 ?
Result: 3

Problem: Please give the measured IC50 for this compound: C=C1C[C@@H](c2nc3cccc(C)c3[nH]2)N(C(=O)c2nc(C)sc2-c2ccc(Cl)c(Cl)c2)C1
Result: 1

Problem: Bench note: what IC50 did Cc1ccc(-n2nccn2)c(C(=O)N2CCC[C@@]2(C)c2nc3cc(C)c(C)cc3[nH]2)c1 show?
Result: 16

Problem: Could you share which IC50 value was measured for Cc1nc(C(=O)N2CCCC2c2nc3cc(Cl)ccc3[nH]2)c(-c2cccc(Cl)c2)s1 (stereo not drawn) ?
Result: 314

Problem: Record request: IC50 value, item CO[C@H]1C[C@@H](c2nc3ccc(Cl)c(C)c3[nH]2)N(C(=O)c2cc(C)ccc2-n2nccn2)C1
Result: 69

Problem: Need IC50 of COc1cc2nc([C@]3(C)CCCN3C(=O)c3cnc(C)nc3-c3cccc(C)c3)[nH]c2cc1OC , thanks.
Result: 119

Problem: // IC50 lookup, key: Cc1ccc(-c2cccc(C)c2C)c(C(=O)N2CCC[C@@]2(C)c2nc3cc(C(F)(F)F)ccc3[nH]2)c1
Result: 199

Problem: IC50 lookup needed for Cc1ccc(-c2cccnc2)c(C(=O)N2CC[C@H](C)[C@H]2c2nc3c(C)c(Cl)ccc3[nH]2)c1F , thanks.
Result: 6330

Problem: GET /values?readout=IC50&item= Cc1nc(C(=O)N2CCCC2c2nc3c(CO)cccc3[nH]2)c(-c2cccc(Cl)c2)s1 (stereo not drawn)
Result: 112

Problem: Looking for the measured IC50 of COc1cccc(-c2ccc(C)cc2C(=O)N2CCC[C@@]2(C)c2nc3cc(C)c(C)cc3[nH]2)c1 , can you help?
Result: 19

Problem: For Cc1ccc(-n2cccn2)c(C(=O)N2CCC[C@@]2(C)c2nc3cc(C(F)(F)F)ccc3[nH]2)n1 , what is its reported IC50?
Result: 860

Problem: Can you look up the measured IC50 of Cc1ccc(-n2cccn2)c(C(=O)N2CC[C@H](C)[C@H]2c2nc3cc(Cl)c(C)cc3[nH]2)c1 for me?
Result: 1290

Problem: Item under review: COc1ccc(-c2ccccc2C(=O)N2CCC[C@@]2(C)c2nc3c(C)c(C)ccc3[nH]2)cc1 . Reported IC50?
Result: 29

Problem: Entry Cc1ccc(-c2ccc(F)cc2)c(C(=O)N2CCC[C@@]2(C)c2nc3cc(C(F)(F)F)ccc3[nH]2)c1 has what IC50?
Result: 166

Problem: Tell me the measured IC50 of Cc1ccc(-n2nccn2)c(C(=O)N2CCC[C@@]2(C)c2nc3cc(C(F)(F)F)ccc3[nH]2)n1 , please.
Result: 280

Problem: Would you kindly share the measured IC50 for Cc1cccc(-c2ccccc2C(=O)N2CCC[C@@]2(C)c2nc3cc(C)c(C)cc3[nH]2)c1 ?
Result: 37

Problem: Fill in: IC50 of Cc1c(Cl)ccc2nc([C@]3(C)CCCN3C(=O)c3nc(-c4ccccc4)sc3-c3ccc(F)cc3)[nH]c12 is ___
Result: 155

Problem: IC50 for COc1ccccc1-c1ccc(C)cc1C(=O)N1CCC[C@@]1(C)c1nc2cc(C(F)(F)F)ccc2[nH]1 ?
Result: 283

Problem: Form field: reported IC50 of C=C1C[C@@H](c2nc3c(Br)cccc3[nH]2)N(C(=O)c2nc(C)sc2-c2ccc(C)c(C)c2)C1
Result: 1

---

- testedOn: human orexin-1 receptor (Homo sapiens (Human), UniProt O43613)
- Sequence (O43613 whole entry): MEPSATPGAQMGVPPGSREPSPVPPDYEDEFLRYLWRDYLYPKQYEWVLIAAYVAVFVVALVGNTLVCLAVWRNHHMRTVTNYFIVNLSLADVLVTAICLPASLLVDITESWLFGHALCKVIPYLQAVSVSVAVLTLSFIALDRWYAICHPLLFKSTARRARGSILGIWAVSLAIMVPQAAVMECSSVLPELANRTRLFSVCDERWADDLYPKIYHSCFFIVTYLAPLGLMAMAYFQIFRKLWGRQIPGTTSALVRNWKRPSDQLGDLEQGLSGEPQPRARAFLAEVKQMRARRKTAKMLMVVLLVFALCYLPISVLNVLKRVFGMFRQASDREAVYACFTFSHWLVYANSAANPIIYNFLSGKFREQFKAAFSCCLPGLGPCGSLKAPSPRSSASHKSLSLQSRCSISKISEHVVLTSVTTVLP
- testMethodNotes: In vitro assay: intracellular calcium measurements (FLIPR), antagonistic activity
- experimentalConditions: CHO cells expressing human orexin-1 receptor, orexin-A agonist, geometric mean, read-out: IC50 Ox1
- Method: In Vitro Assay: Intracellular Calcium Measurements: […] Within the Fluorescent Imaging Plate Reader (FLIPR Tetra, Molecular Devices), antagonists are added to the plate in a volume of 10 μl/well, incubated for 120 min and finally 10 μl/well of agonist is added. […] The calculated IC50 values may fluctuate depending on the daily cellular assay performance. […]
measurementType: IC50 (µM)
Please reply with the bare figure in µM and do not write the unit itself.

Problem: # get_value(readout='IC50', item= Cc1ccc(-c2ncccn2)c(C(=O)N2CCC[C@@]2(C)c2nc3cc(OC(F)(F)F)ccc3[nH]2)c1 )
Result: 0.034

Problem: For the compound shown here, CSc1ccc2nc([C@@H]3CCCN3C(=O)c3cnc(C)nc3-c3ccc(Cl)c(Cl)c3)[nH]c2c1 , give the reported IC50.
Result: 0.032

Problem: Consider the compound CSc1ccc2nc([C@@H]3CCCN3C(=O)c3cncnc3-c3ccc(Cl)c(Cl)c3)[nH]c2c1 and give its measured IC50.
Result: 0.737

Problem: Value lookup for IC50; key = Cc1ccc(-n2nccn2)c(C(=O)N2CCC[C@@]2(C)c2nc3c(Br)cccc3[nH]2)c1
Result: 0.023

Problem: Data request, read-out IC50, for Cc1ccc(C(=O)N2CCC[C@@]2(C)c2nc3cc(F)c(Br)cc3[nH]2)c(-n2nccn2)c1
Result: 0.024

Problem: What does the data say about its IC50? Entry: Cc1nc(C(=O)N2CC(F)(F)C[C@H]2c2nc3c(C)cccc3[nH]2)c(-c2ccccc2)s1
Result: 0.425

Problem: Give its IC50 value. Item: COc1cc2nc([C@@H]3[C@@H](C)CCN3C(=O)c3c(C)cccc3-n3nccn3)[nH]c2cc1OC
Result: 0.391

Problem: # lookup: IC50 of CSc1ccc2nc([C@@H]3CCCN3C(=O)c3cncnc3-c3ccc(C)c(C)c3)[nH]c2c1
Result: 0.616

---

- testedOn: human orexin-1 receptor (Homo sapiens (Human))
- testMethodNotes: In vitro assay: intracellular calcium measurements (FLIPR), antagonistic activity
- experimentalConditions: CHO cells expressing human orexin-1 receptor, orexin-A agonist, geometric mean, read-out: IC50 Ox1
pIC50: −log10 of the molar value.
Each entry gets NO if its pIC50 stays under 7, and YES if its pIC50 is 7 or above.

Problem: Test whether the molecule Cc1nc(C(=O)N2CCCC2c2nc3c(C(F)(F)F)cccc3[nH]2)c(-c2cccc(Cl)c2)s1 (stereo not shown) [Ex. 1.105] records pIC50 of 7 or higher.
Result: YES

Problem: Answer whether pIC50 of COc1cc(C(=O)N2CCC[C@@]2(C)c2nc3cc(C(F)(F)F)c(Cl)cc3[nH]2)c(-n2nccn2)cc1OC [Ex. 5.135] is greater than or equal to 7.
Result: YES

Problem: Is the recorded value of pIC50 equal to or greater than 7 for this molecule? CSc1ccc2nc([C@@H]3CCCN3C(=O)c3nc(C)sc3-c3cc(F)cc(F)c3)[nH]c2c1 [Ex. 1.44]
Result: NO

Problem: I'd appreciate it if you could say whether COc1ccc2nc([C@@H]3CCCN3C(=O)c3nc(C4CC4)sc3-c3ccc(C)cc3)[nH]c2c1 [Ex. 1.23] has pIC50 at least equal to 7.
Result: NO

Problem: Would you say CSc1ccc2nc([C@@H]3CCCN3C(=O)c3c(C)cccc3-n3nccn3)[nH]c2c1 [Ex. 1.154] shows pIC50 at minimum 7?
Result: NO

Problem: Reported pIC50 at or above 7? CSc1cccc2nc([C@@H]3CCCN3C(=O)c3cncnc3-c3ccc(Br)c(Cl)c3)[nH]c12 [Ex. 1.84]
Result: YES

Problem: Tell me whether pIC50 is at least 7 here: CCn1c([C@]2(C)CCCN2C(=O)c2cc(C)ccc2-n2nccn2)nc2cc(OC)c(OC)cc21 [Ex. 7.10]
Result: YES

Problem: Decide: pIC50 of C=C1C[C@@H](c2nc3c(C)cc(C)cc3[nH]2)N(C(=O)c2cc(C)ccc2-n2nccn2)C1 [Ex. 6.62] >= 7?
Result: YES

Problem: I'd appreciate it if you could say whether Cc1ccc(-c2nc(C)sc2C(=O)N2CC[C@H](C)[C@H]2c2nc3c(C)c(Cl)ccc3[nH]2)cc1 [Ex. 4.65] has pIC50 at least equal to 7.
Result: YES

Problem: Given the entry Cc1ccc(-c2ccccc2C(=O)N2CC[C@H](C)[C@H]2c2nc3cc(C)c(C)cc3[nH]2)cc1 [Ex. 4.86] , answer whether its pIC50 meets or surpasses 7.
Result: YES

Problem: Is the recorded value of pIC50 equal to or greater than 7 for this molecule? C=C1C[C@@H](c2nc3cc(Cl)c(C)cc3[nH]2)N(C(=O)c2cc(C)ccc2-n2nccn2)C1 [Ex. 6.65]
Result: YES

Problem: Has Cc1ccc(C(=O)N2CC[C@H](C)[C@H]2c2nc3c(C)c(Cl)ccc3[nH]2)c(-c2ncccn2)c1 [Ex. 4.174] a recorded pIC50 greater than or equal to 7?
Result: YES

Problem: // inclusive: pIC50 at least 7? input: C=C1C[C@@H](c2nc3ccc(OC)cc3[nH]2)N(C(=O)c2nc(C)ccc2-n2cccn2)C1 [Ex. 6.138]
Result: NO
